Test system: SK-MEL-28 melanoma
assay info: NCI tumour cell line growth inhibition, 48 h
measurement name: TGI

c1ccc(C2CC(N3CCOCC3)=Nc3ccccc3N2)cc1 (stereo unspecified) :: > 100 µM
C=CCSc1nn(CC=C)cc2ncnc1-2 :: > 100 µM
CCOC(=O)c1cc(C(=O)c2cc(OC)cc(OC)c2)n2ncccc12 :: > 100 µM
Nc1nc(=O)n(C2OC(CO)C(O)C2O)cc1F (stereo unspecified) :: > 100 µM
NC1=C(c2nc(-c3cc4ccccc4oc3=O)cs2)C(c2ccco2)c2c(c3ccccc3oc2=O)O1 (stereo unspecified) :: > 150 µg/mL
COC(=O)[C@]1(c2cc3ccccc3[nH]2)CC2CN(CC(=O)N(C)OC)C1C1OC(C)(C)OC21 (stereo partly specified) :: > 100 µM
CC(C)OCN1COCN=C1NC#N :: > 100 µM
Nc1nc(Nc2ccc(Cl)cc2)sc1C(=O)c1cc2ccccc2oc1=O :: > 100 µM

Hello, I would appreciate it if you could give TGI for each entry below.
1. COc1ccc2[nH]cc(/C=C3\C(=O)Nc4ccccc43)c2c1
2. N#CC1=C(N)Oc2c(sc3c(F)cccc23)C1c1ccc([N+](=O)[O-])cc1 (stereo unspecified)
3. O=C(O)[C@@H]1C[C@@H](O)CN1

Reply text:
["42 µM", "1.97 µM", "> 100 µM"]

###

Test system: NCI-H460 lung
assay info: NCI tumour cell line growth inhibition, 48 h
Consider the following compounds; for each one, report its TGI.

C[n+]1c2ccccc2c(NC(CCC(N)=O)C(=O)O)c2ccccc21 (stereo not given) :: > 100 µM
COC(=O)c1ccccc1CC1Cc2cc3c(cc2C1)CCC3 :: > 100 µM
COC(CNC(=O)C(C)NC(=O)C(C)NC(=O)c1ccccc1)OC (stereo not given) :: > 100 µM
COc1ccc(C(=O)C(C(=O)C(=O)Nc2nc3ccc(OC)cc3s2)c2ccc(OC)cc2)cc1 (stereo not given) :: > 100 µM
C[C@]12CC[C@H]3[C@@H](C[C@@H]4SC(Nc5cccc(F)c5)=N[C@@]45CC(=O)CC[C@]35C)[C@@H]1CCC2=O :: 5.58 µM

Hello, I would appreciate it if you could give TGI for each entry below.
1. CNC(=O)N(CCC#N)CCN(CCN(C(=O)NC)c1ccccc1)C(=O)NC
2. CCOC(=O)C(=Cc1ccc(Br)cc1)C(=O)OCC
3. O=c1cccc(C#CCCCCOC2CCCO2)o1 (stereo not given)

Reply text:
1: > 100 µM; 2: 5.73 µM; 3: > 100 µM

Hello, I would appreciate it if you could give TGI for each entry below.
1. C=CCCCC1(C)CCCCNC1=O (stereo not given)
2. C/C=C(/C)C(=O)OC1C=C(CO)C(=O)C(OC(=O)/C(C)=C\C)C1C(C)C (stereo not given)
3. COC(=O)C1=NN2c3ccccc3CN([C@@H](C)c3ccccc3)C(=O)[C@@H]2C1

Reply text:
> 10 µM
2.94 µM
> 100 µM

Hello, I would appreciate it if you could give TGI for each entry below.
1. COC(=O)C(C(=O)C(=O)Nc1ccccc1OC)c1csc(-n2nc(-c3ccccc3)cc2-c2ccccc2)n1 (stereo not given)
2. Nc1cc(C(F)F)c(-c2nc(N3[C@@H]4CC[C@H]3COC4)nc(N3[C@@H]4CC[C@H]3COC4)n2)cn1
3. Cc1cc(N2CCN(C)CC2)nc(NC2CCCC(Nc3ccnc4cc(Cl)ccc34)C2)n1 (stereo not given)

Reply text:
1: > 100 µM; 2: > 100 µM; 3: 5.07 µM

Hello, I would appreciate it if you could give TGI for each entry below.
1. CC(C)CCNC(=O)c1ccc(CNC(=O)/C=C/c2ccc(-c3ccccc3[N+](=O)[O-])o2)cc1
2. C=CCSc1n[nH]c(-c2cccs2)n1

Reply text:
["> 100 µM", "> 100 µM"]
